Recorded Emax, one value per entry.
target: 5-HT2A receptor (Homo sapiens); construct: host or cells: HEK293; assay: FLIPR Ca2+ flux functional assay, 5-HT2A; type: cell-based; settings: agonist activity, Ca2+ flux, HEK293 cells
RECORDED ENDPOINT: Emax (%)

Cc1nc2c(ccc3[nH]cc(CCN(C(C)C)C(C)C)c32)o1 [Example P-135] :: 78.3
CN(C)CCc1c[nH]c2cc(F)c(F)cc12 [Example P-153] :: 74.8
Cc1ccc(O)c2c(CCN(C)C(C)C)c[nH]c12 [Example P-87] :: 62.4
CC(C)N(C)CCc1c[nH]c2cc(F)c(F)cc12 [Example P-155] :: 73.4
COc1c(F)ccc2[nH]cc(CCN(C)C(C)C)c12 [Example P-93] :: 95.3
COc1c(C)ccc2[nH]cc(CCN(C)C)c12 [Example P-9] :: 65
COc1ccc(C)c2[nH]cc(CCN(C(C)C)C(C)C)c12 [Example P-83] :: 79.2
CCN(CC)CCc1c[nH]c2ccc(C)c(O)c12 [Example P-67] :: 78.3
CCCN(CCC)CCc1c[nH]c2ccc(C)c(O)c12 [Example P-68] :: 102
CN(C)CCc1c[nH]c2cc3c(cc12)OCC3 [Example P-1] :: 63.9

* * *

test: In vivo pharmacokinetics, plasma and brain exposure after IP dosing; set-up: species or system male C57BL/6 mice; conditions: male, C57BL/6, mouse, plasma, ip, 10 mg/kg, 0.083 h, n = 3, read-out: Plasma Concentration, Mean ± SD
RECORDED ENDPOINT: concentration at 0.083 h (nM)

CCN(C)CCc1c[nH]c2ccc(OC)c(C)c12 :: 2560
CCN(C)CCc1c[nH]c2c(C)cc(OC)cc12 :: 6430
CCN(C)CCc1c[nH]c2cc(C)c(OC)cc12 :: 2620

* * *

target: 5-HT2A receptor (Homo sapiens, UniProt P28223); construct: host or cells: HEK293; assay: FLIPR Ca2+ flux functional assay, 5-HT2A; assay type: cell-based; conditions: agonist activity, Ca2+ flux, HEK293 cells; read-out: 5-HT2A EC50
Sequence (P28223 whole entry): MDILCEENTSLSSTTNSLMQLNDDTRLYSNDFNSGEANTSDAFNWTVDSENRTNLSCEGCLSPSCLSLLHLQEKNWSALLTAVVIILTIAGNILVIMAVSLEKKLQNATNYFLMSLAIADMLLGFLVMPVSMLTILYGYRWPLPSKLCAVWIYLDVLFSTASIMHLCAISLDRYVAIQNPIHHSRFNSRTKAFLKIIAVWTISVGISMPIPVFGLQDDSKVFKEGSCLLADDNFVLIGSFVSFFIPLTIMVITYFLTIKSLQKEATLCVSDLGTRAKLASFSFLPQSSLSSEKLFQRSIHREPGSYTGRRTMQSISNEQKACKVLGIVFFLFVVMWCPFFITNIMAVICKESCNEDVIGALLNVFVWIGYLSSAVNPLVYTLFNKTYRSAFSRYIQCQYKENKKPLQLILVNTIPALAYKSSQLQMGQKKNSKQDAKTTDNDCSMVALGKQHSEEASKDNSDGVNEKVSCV
RECORDED ENDPOINT: EC50

CCN(CC)CCc1c[nH]c2c(C)ccc(O)c12 :: 189 nM
CCN(CC)CCc1c[nH]c2ccc(F)c(OC)c12 :: 11.2 nM
CCN(CC)CCc1c[nH]c2cc(F)cc(OC)c12 :: 16 nM
CCCN(C)CCc1c[nH]c2c(C)ccc(O)c12 :: 110 nM
CCCN(CCC)CCc1c[nH]c2c(C)cc(OC)cc12 :: 140 nM
CCN(CC)CCc1c[nH]c2ccc(C)c(O)c12 :: 163 nM
CC(C)N(C)CCc1c[nH]c2cc(F)c(F)cc12 :: 10.4 nM
Cc1ccc(O)c2c(CCN(C)C(C)C)c[nH]c12 :: 113 nM
CN(C)CCc1c[nH]c2cc3c(cc12)OCC3 :: 139 nM
CC(C)N(C)CCc1c[nH]c2c(F)c(F)ccc12 :: 54.8 nM
Cc1cc(O)c2c(CCN(C)C)c[nH]c2c1 :: 80.4 nM
COc1cc(F)cc2[nH]cc(CCN(C)C(C)C)c12 :: 6.76 nM
Cc1ccc2[nH]cc(CCN(C)C(C)C)c2c1O :: 91.9 nM
COc1ccc2[nH]cc(CCN(C)C)c2c1C :: 124 nM
CCN(C)CCc1c[nH]c2ccc(F)c(OC)c12 :: 7.33 nM
Cc1nc2c(ccc3[nH]cc(CCN(C(C)C)C(C)C)c32)o1 :: 25.1 nM
CN(C)CCc1c[nH]c2cc(F)c(F)cc12 :: 29.5 nM
CC(C)N(CCc1c[nH]c2ccc(F)c(F)c12)C(C)C :: 10.1 nM
COc1ccc(C)c2[nH]cc(CCN(C)C)c12 :: 107 nM
COc1ccc2[nH]cc(CCN(C)C(C)C)c2c1C :: 189 nM
COc1ccc(C)c2[nH]cc(CCN(C(C)C)C(C)C)c12 :: 619 nM

* * *

Target: 5-HT2C receptor (Homo sapiens)
Construct: host or cells: HEK293
Sequence (P28335 33-458): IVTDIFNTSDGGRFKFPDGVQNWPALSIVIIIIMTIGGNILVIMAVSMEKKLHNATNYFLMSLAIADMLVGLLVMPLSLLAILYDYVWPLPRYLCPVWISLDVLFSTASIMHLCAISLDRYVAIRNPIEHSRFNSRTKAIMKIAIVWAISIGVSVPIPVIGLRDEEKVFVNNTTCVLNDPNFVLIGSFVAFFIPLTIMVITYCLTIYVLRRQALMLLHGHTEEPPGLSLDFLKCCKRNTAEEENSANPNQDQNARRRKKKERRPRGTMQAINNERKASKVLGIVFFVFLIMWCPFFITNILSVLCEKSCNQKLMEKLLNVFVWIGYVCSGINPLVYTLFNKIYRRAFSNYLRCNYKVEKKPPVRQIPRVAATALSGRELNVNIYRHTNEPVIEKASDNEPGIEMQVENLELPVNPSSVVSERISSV
Test: cell-based
Details: agonist activity, Ca2+ flux, HEK293 cells
# reported Emax; entries follow
RECORDED ENDPOINT: Emax

CCN(C)CCc1c[nH]c2ccc(C)c(O)c12 :: 61%
CCN(C)CCc1c[nH]c2c(C)ccc(O)c12 :: 26.9%
CCN(C)CCc1c[nH]c2cc(F)cc(F)c12 :: 35.6%
CN(C)CCc1c[nH]c2cc3occc3cc12 :: 78.9%
CCN(CC)CCc1c[nH]c2c(C)ccc(O)c12 :: 25.4%
COc1c(F)ccc2[nH]cc(CCN(C)C)c12 :: 109%

* * *

biological target: 5-HT2C receptor (Homo sapiens, UniProt P28335); construct: host or cells: HEK293; experiment: cell-based; conditions: agonist activity, Ca2+ flux, HEK293 cells
RECORDED ENDPOINT: Emax (%)

CCN(C)CCc1c[nH]c2cc(C)c(OC)cc12 [Example P-42] :: 85.8
CCCN(CCC)CCc1c[nH]c2cc(C)c(OC)cc12 [Example P-48] :: 74
CCN(CC)CCc1c[nH]c2c(C)cc(OC)cc12 [Example P-54] :: 58
COc1c(F)ccc2[nH]cc(CCN(C(C)C)C(C)C)c12 [Example P-95] :: 83
COc1cc(F)c2[nH]cc(CCN(C(C)C)C(C)C)c2c1 [Example P-118] :: 97.1
COc1cc(F)cc2[nH]cc(CCN(C)C(C)C)c12 [Example P-97] :: 59.8
COc1ccc(F)c2[nH]cc(CCN(C(C)C)C(C)C)c12 [Example P-105] :: 92.6
CCN(CC)CCc1c[nH]c2ccc(C)c(OC)c12 [Example P-61] :: 75.8
CCN(CCc1c[nH]c2cc(F)cc(OC)c12)C(C)C [Example P-99] :: 79.3
COc1cc(F)c2[nH]cc(CCN(C)C(C)C)c2c1 [Example P-116] :: 60.5
COc1cc(F)cc2[nH]cc(CCN(C)C)c12 [Example P-14] :: 75.7
COc1ccc(F)c2[nH]cc(CCN(C)C(C)C)c12 [Example P-103] :: 7.02
CN(C)CCc1c[nH]c2cc(F)cc(F)c12 [Example P-147] :: 15.3
CC(C)N(C)CCc1c[nH]c2c(F)c(F)ccc12 [Example P-161] :: 80.9
COc1c(C)ccc2[nH]cc(CCN(C)C(C)C)c12 [Example P-60] :: 72.2
Cc1ccc2[nH]cc(CCN(C(C)C)C(C)C)c2c1O [Example P-69] :: 70.2
CC(C)N(C)CCc1c[nH]c2cc(F)c(F)cc12 [Example P-155] :: 83.7
CCN(C)CCc1c[nH]c2ccc(C)c(OC)c12 [Example P-59] :: 90.5
COc1ccc(F)c2[nH]cc(CCN(C)C)c12 [Example P-101] :: 53.1
COc1cc2c(CCN(C)C)c[nH]c2cc1C [Example P-7] :: 81.1
COc1ccc2[nH]cc(CCN(C)C)c2c1C [Example P-6] :: 73.6

* * *

biological target: 5-HT2C receptor (Homo sapiens, UniProt P28335); construct: host or cells: HEK293; experiment: cell-based
Criterion: EC50 strictly less than 30 nM. Met: MET. Not met: NOT MET.

CCN(CC)CCc1c[nH]c2ccc3oc(C)nc3c12 [Example P-134] :: NOT MET
Cc1nc2c(ccc3[nH]cc(CCN(C)C)c32)o1 [Example P-131] :: MET
CN(C)CCc1c[nH]c2cc3occc3cc12 [Example P-4] :: MET
CCN(CC)CCc1c[nH]c2ccc3ocnc3c12 [Example P-129] :: NOT MET
CCN(C)CCc1c[nH]c2ccc3oc(C)nc3c12 [Example P-132] :: NOT MET
CN(C)CCc1c[nH]c2ccc3oc(=O)[nH]c3c12 [Example P-125] :: NOT MET
